Data provenance: patent US20250214991A1

Biological target: IKZF2 (Homo sapiens (Human), UniProt Q96SW2+Q9UKS7)
Sequence (Q9UKS7 whole entry): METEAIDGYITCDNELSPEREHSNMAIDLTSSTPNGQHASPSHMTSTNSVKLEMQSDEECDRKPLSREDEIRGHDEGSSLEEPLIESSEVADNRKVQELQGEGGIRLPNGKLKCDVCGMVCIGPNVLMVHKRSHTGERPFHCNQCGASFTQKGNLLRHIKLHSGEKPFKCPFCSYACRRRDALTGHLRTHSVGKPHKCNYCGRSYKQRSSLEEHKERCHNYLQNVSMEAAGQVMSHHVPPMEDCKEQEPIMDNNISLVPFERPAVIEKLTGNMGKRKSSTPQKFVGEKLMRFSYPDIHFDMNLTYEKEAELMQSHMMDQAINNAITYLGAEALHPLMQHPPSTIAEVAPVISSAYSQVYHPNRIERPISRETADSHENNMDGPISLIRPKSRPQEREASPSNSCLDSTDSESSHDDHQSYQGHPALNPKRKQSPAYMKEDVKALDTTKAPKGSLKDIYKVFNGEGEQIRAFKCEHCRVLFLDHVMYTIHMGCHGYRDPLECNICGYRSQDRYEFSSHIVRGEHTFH
Sequence (Q96SW2 whole entry): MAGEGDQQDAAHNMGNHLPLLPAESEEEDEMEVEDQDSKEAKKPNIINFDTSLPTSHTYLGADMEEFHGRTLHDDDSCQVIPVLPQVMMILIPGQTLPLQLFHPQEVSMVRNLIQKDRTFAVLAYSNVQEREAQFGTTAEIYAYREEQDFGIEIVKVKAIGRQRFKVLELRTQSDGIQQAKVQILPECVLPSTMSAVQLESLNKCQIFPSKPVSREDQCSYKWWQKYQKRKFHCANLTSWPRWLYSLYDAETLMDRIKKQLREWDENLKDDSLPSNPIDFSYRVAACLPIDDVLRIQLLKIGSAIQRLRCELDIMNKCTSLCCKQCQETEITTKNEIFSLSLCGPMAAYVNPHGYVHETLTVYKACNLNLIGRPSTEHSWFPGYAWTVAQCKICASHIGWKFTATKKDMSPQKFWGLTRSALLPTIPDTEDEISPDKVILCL
Sequence (Q16531 2-1140 partner): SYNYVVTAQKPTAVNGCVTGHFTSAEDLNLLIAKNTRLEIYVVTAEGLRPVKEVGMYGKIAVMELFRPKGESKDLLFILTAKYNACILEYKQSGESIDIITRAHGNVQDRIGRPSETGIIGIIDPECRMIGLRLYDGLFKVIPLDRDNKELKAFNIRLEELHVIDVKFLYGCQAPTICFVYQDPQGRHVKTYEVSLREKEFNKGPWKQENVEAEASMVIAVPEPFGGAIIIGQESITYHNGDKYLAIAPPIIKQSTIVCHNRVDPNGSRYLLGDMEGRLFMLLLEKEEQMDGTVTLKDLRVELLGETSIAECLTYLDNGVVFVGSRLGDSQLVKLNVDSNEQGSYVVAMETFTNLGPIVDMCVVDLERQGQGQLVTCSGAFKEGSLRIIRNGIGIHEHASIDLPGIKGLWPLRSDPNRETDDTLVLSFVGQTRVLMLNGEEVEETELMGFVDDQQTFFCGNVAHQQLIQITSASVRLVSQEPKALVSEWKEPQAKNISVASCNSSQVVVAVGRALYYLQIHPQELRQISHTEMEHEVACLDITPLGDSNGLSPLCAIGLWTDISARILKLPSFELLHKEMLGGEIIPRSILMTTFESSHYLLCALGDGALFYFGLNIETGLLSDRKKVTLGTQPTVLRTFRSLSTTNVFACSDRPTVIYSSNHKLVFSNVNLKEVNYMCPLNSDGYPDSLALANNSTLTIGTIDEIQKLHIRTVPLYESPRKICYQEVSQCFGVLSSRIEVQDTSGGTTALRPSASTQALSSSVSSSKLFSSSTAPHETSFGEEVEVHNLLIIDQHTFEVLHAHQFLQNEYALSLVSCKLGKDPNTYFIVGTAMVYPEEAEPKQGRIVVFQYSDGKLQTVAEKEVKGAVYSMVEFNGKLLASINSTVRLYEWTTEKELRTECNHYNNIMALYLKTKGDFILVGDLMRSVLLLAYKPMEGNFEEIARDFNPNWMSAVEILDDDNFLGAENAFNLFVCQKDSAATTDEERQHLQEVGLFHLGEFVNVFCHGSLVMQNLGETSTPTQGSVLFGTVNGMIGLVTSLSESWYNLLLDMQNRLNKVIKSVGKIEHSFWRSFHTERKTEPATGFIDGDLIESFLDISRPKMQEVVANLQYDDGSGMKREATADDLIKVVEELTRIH
Test: In vitro IKZF2 HiBit Assay (HEK293T Flp-in-HiBiT cells)
Type: cell-based
Settings: HEK293T Flp-in-HiBiT cells, 6 hrs incubation; read-out: IKZF2 HiBit DC50
quantity: DC50

Example entries and their recorded answers appear below.
compound="CC(C)Nc1n[nH]c2c(CN3CCC(F)C3)cc(-c3ccc4c(c3F)CN(C3CCC(=O)NC3=O)C4=O)nc12 (centres unmarked)" reported_measurement="1 to 10 nM"
compound="Nc1nn(C2COC2)c2c(CN3CCCC3)cc(-c3ccc4c(c3)CN(C3CCC(=O)NC3=O)C4=O)nc12 (centres unmarked)" reported_measurement="10 to 100 nM"
compound="Cn1ccc2c(CN3CCC(O)CC3)cc(-c3ccc4c(c3)CN(C3CCC(=O)NC3=O)C4=O)nc21 (centres unmarked)" reported_measurement="1 to 10 nM"
compound="Cc1cc(-c2ccc3c(c2)CN(C2CCC(=O)NC2=O)C3=O)nc2c1CCN2CCO (centres unmarked)" reported_measurement="10 to 100 nM"

Consider now this further compound.
Data request: Need DC50, item O=C1CCC(N2Cc3cc(-c4nc5[nH]ccc5c(CN5CCCC5)c4Cl)ccc3C2=O)C(=O)N1 (centres unmarked)
Data returned: 1 to 10 nM
